assay: Oral bioavailability in rat; type: ADME, organism-based; conditions: in vivo
Readout: bioavailability

Problem: Entry `CC(C)(C)CC[C@H](NC(=O)c1cc(Cl)cc(Cl)c1)C(=O)O` has what bioavailability?
Solution: 100%

====

tested on: P-gp; experiment: Substrate activity at human P-gp in MDR1 cells assessed as efflux ratio; assay type: ADME, cell-based
Readout: efflux ratio
Keep it simple and answer with nothing but the number.

Problem: What value of efflux ratio has been recorded for this entry: `CC(C)(C)CC[C@H](NC(=O)c1cc(Cl)cc(Cl)c1)C(=O)O`
Solution: 1.8

Problem: Could you share which efflux ratio value was measured for `CC(C)(C)CC[C@H](NC(=O)c1cc(Cl)c[nH]1)C(=O)O` ?
Solution: 2

Problem: Look at this molecule and give its reported efflux ratio. `CC(C)(C)CC[C@H](NC(=O)c1ccc(Oc2ccccc2)nc1)C(=O)O`
Solution: 2.2
